The origin of these recorded values is the domain aggregation screens of Martell et al. (2025).

- Procedure Text: soluble fraction after stress (log2 fold change); higher = more stays soluble; pooled small domains, quantitative proteomics
- Condition Notes: stress: 50 degC
Classify as follows. Reported soluble fraction (log2) greater than or equal to -0.7: class 1. Reported soluble fraction (log2) below: class 0.

Query string: Can HMFQRLPFSFANRYKMVLEYQHPERPPVLYYVEPLKAAAILEVSRVIKSGFTPQAIVSDEFEKKLTEAYQR be said to have soluble fraction (log2) at or above -0.7?
Result string: class 0

Query string: Is the recorded value of soluble fraction (log2) equal to or greater than -0.7 for this sequence? HMKEKQLMTLDDDLYAFLLKHPGIIQKDIYNHFPYDIKGVIADTLYAWDKTGKIKRTKSGNSYIIYT
Result string: class 1

Query string: # check: soluble fraction (log2) of HMPTPLTPREHEIANLIAQGLSNREIADELVISPATAARHVANILAKLGFSSRTQVASWATRHD is greater than or equal to -0.7
Result string: class 1

Query string: Answer whether soluble fraction (log2) of HMIELDRTNLLGVFGPKSRPYALLMLSNGEMIKISIGDQFFGWRVYGIDEKSIQVQNGTKQEILRIP is greater than or equal to -0.7.
Result string: class 0

Query string: Evaluate HMETTVPNVLNHNISTGEILLKENNLNFRIQYIPSNKDEAVGTIINSVPTSGEKVKFGTVVDLKVL : soluble fraction (log2) at minimum -0.7?
Result string: class 1

Query string: Does the reported soluble fraction (log2) for HMLSLSDIINDVMERLTREKNLTFDELLGEKRERRRIVYTFLALLELIRLKMIKAYQTAAFGVIRIFPR fall at or above the -0.7 mark?
Result string: class 0

Query string: Given the entry HMVGQIISNARKQEKMTQSELAEKVGTNKTYISRIEKGVIEPGVGLFFRIIDALGLKIEIVKP , answer whether its soluble fraction (log2) meets or surpasses -0.7.
Result string: class 0

----------
Consider the following sequences; for each one, report its soluble fraction (log2).
- Procedure Text: soluble fraction after stress (log2 fold change); higher = more stays soluble; pooled small domains, quantitative proteomics
- Condition Notes: stress: 50 degC
The reply should be a number, written without any unit.

Query string: Bench note: what soluble fraction (log2) did HMLERPLKLKSHYVSTIYEKVAVQYSEGEEKKSVMGTLIEVNQDTIVLDDRGTIIEIPFKSITRAKTVF show?
Result string: -0.245

Query string: Tell me the measured soluble fraction (log2) of HMTSLQDLLEELRVIRETLTGSQVLSDMQLFSQLRNLGDIKAALTRMQDNPAAARMVGEVDKLLETMFAS , please.
Result string: -0.955

Query string: // lookup soluble fraction (log2) for HMPSNVKIPDVTGKTVAQARSAIEAAGLKVGKEKDEYSDSAKKDSVIRTNPQAGTQRREGSTVDLIVS
Result string: 0.122

----------
- Procedure Text: soluble fraction after stress (log2 fold change); higher = more stays soluble; pooled small domains, quantitative proteomics
- Condition Notes: stress: 50 degC
Value Type: soluble fraction (log2)
Lab note: jot the number down without any unit.

Query string: Entry HMPLPFSPVMFVGTKSGAQTDLDGNYKIETYYSSDSLKVVVLGYAPLAKKVKQGTTSVVNFELSAAS has what soluble fraction (log2)?
Result string: 0.113

Query string: Query: soluble fraction (log2); subject: HMSFGWELYKGKEGIADTDLHPSGWIRIADKRVFAVSEGEFIEKGLEIIVLSVDGNRIVVRELK
Result string: -1.39

Query string: # lookup: soluble fraction (log2) of HMQVSDVTELRTILEKVITENESVATEFKEGKDAAMNFLVGQGMKATRGAADPALLKEIITGIL
Result string: 0.0889

----------
- Procedure Text: soluble fraction after stress (log2 fold change); higher = more stays soluble; pooled small domains, quantitative proteomics
- Condition Notes: stress: 50 degC
Value Type: soluble fraction (log2)
Keep it simple and answer with nothing but the number.

Query string: For the sequence shown here, HMQVAPDLMQRLTSQGHVDEKLSDALVHARQITNFEGRRRQMQFIGKLMRKLSEESIEAVKDALNEQRM , give the reported soluble fraction (log2).
Result string: -0.264

Query string: Query (sequence): HMDQDLGFLINKYFELGKDYNTLVEIYEKIKEYIASIDKKMLEYTKNFTIEQLKKWLDDGTINNIILTLG ; field requested: soluble fraction (log2)
Result string: -0.142

Query string: Which soluble fraction (log2) reading was recorded for the sequence HMSADISIGYNIPKGSVTVSAGGRTLQEGIDYDINYDLGTIKITNQAILNAGLPVQVNFENNAS ?
Result string: 0.149

Query string: Would you mind telling me what soluble fraction (log2) value was observed for HMVELRDGSLPLARGSVGDLVAEVQRKLGVAADGIFGPQTERAVRAFQARAGLASDGIVGPLTWSALFGA ?
Result string: -0.282

----------
- Procedure Text: soluble fraction after stress (log2 fold change); higher = more stays soluble; pooled small domains, quantitative proteomics
- Condition Notes: stress: 50 degC
Value Type: soluble fraction (log2)
Lab note: write the figure by itself, no unit.

Query string: Which soluble fraction (log2) is listed for HMAPAYELTEEETKIIEILKANENIDLNELKSQAALSGKKWDKSMKNLAKYNLTKVTVDGDAKTVAYLA ?
Result string: 0.0932

Query string: Query (sequence): HMDWFDELKVSTDDSGRVTAPEESEFMFQTSNEKIFAGGDMVRGSDLVVTAIWEGRQAAEGIMDYLD ; field requested: soluble fraction (log2)
Result string: -0.16

Query string: // lookup soluble fraction (log2) for HMKTITLDEAQEIALAEVDGKVTRAVEETDDGRSYYEFDIITNDQKHELEVDASSGKITKNEIDEDYVPS
Result string: 0.171

Query string: Which soluble fraction (log2) is listed for HMQLEPLITSVIPVNFAKAGEVATTIKGKEVGLVSDRGSITAESRTNVLIVKDIKKNVDDISAMVKRLD ?
Result string: 0.123

Query string: Consider the sequence shown here: HMQLDLSDPSKNKLDSIVSLPIKSLKAVEANGEILFMSENGRFVLRGQLYDIWYKDTLDTSAQIQDAATRI What is its recorded soluble fraction (log2)?
Result string: 0.109

Query string: # lookup: soluble fraction (log2) of HMNVDLLEARIPIQSHGMRLDQVVAELFPDYSRNRLAAWIKEGRLTVDGKTMKPRDRALASAHVVLEVV
Result string: -0.18

Query string: For the sequence HMYMKMNDRIRSRRKELKMTQSVLAKLVGVNRVTITGWESGDYKPGGENLQALAAALEKTPQWLLDGKD , what soluble fraction (log2) is on record?
Result string: -0.996

Query string: Give its soluble fraction (log2) value. Item: HMADAGQTTAATELKQAPNAGSATISQLSAGQTLQIGTRQGAWYQVKTPQGEGWVRMLSVRLQ
Result string: 0.0186

Query string: Please look up its soluble fraction (log2): HMTEELQDMESRIIEAAKRVFVRKGYEATKMSDIALEVGLGRTALHYYFRTKEMLFDAIFGRLMGV
Result string: -0.385

Query string: What does the record list as soluble fraction (log2) for HMGMYFTEMRKNEGLIALNGVAESNKRVSDLMDNLKDSSSFDAADIKAVKSGSGDASSLMDFELLVT ?
Result string: 0.113

Query string: // returns reported soluble fraction (log2) for input HMNIVKGDTTANVRVVQQRLYNLGYYTYKVDGIWGTRTKTAVKKFQKDKGLVADGIVGAKTEKALGITLT
Result string: -1.29

Query string: Find the recorded soluble fraction (log2) belonging to HMESGSSKINQDILETFTRGKKSLSISDISRLSGHHRHTVARYLDNLVSSGKLEMRQHGQKKKYYLSDIQP and report it.
Result string: 0.0308

Query string: Consider the sequence shown here: HMKQMNETQQKAFEIYLDSATFETDYKPISEEQLAAKLDALGLKGSSSSINRWKKDFNWAQALQNKVTLAM What is its recorded soluble fraction (log2)?
Result string: -0.11

----------
- Procedure Text: soluble fraction after stress (log2 fold change); higher = more stays soluble; pooled small domains, quantitative proteomics
- Condition Notes: stress: 50 degC
Assignment: determine reported soluble fraction (log2) for the given sequences.
Quick one: just the number, no unit, thanks!

Query string: Given the sequence HMGRTVKGVNFVGLRDAGDPVDLAEIYSKEGADELVFLDITATHEKRKTLLDLVTRVAERINIPFTVGGGI , what is its reported soluble fraction (log2)?
Result string: -0.015

Query string: So what does the record say about soluble fraction (log2) for HMLDEKAVRQYLLNTLENSEIKMDRQAIDLFLRLTDLDLSKMMRELQKILLYGQEQEVITVKEIEQ ?
Result string: -0.856

Query string: Could you tell me which soluble fraction (log2) is on file for HMSNMWVWSKLSGIQWMDAWEDRFHGNPNTVITRLKTNKTVRVEVYTETEQEALDIKKLFGGSIRKLV ?
Result string: -2.96
